experiment summary: NCI Yeast Anticancer Drug Screen. Data for the bub3 strain (AID 167)
condition context: S. cerevisiae bub3 mutant strain, at 50.0 µM, hits give high values
This is part of a sample that, as a whole, favours compounds with a hit. Of some 79,000 tested, about 15% had one in any assay.
readout: growth inhibition (%)

C=C1C(=O)O[C@@H]2C[C@@]3(C)CC(=O)C=C(C)[C@@H]3C[C@H]12
15.8
N#CC1(C#N)C2CCCCC23OC(=N)C1(C#N)C(c1ccccc1)O3 (stereo not drawn)
-29.9
COC(=O)C(=O)C(C(=O)C(=O)Nc1ccc(Cl)c(Cl)c1)c1nc2ccc(C(=O)c3ccccc3)cc2[nH]c1=O (stereo not drawn)
-3.05
CCOC(=O)c1cc(C)nc2c1c(=O)n(-c1ccccc1)c(=O)n2CCCCN1CCN(c2ncccn2)CC1
-16.9
C=C1CCN(c2ccccc2)C1=O
-5.05
N#CC1(C#N)C2CCCCC23OC(=N)C1(C#N)C(c1ccco1)O3 (stereo not drawn)
-41.5
COC(=O)C(C(=O)C(=O)Nc1c(C)cccc1C(C)(C)C)c1nc2ccc(Cl)cc2[nH]c1=O (stereo not drawn)
-3.5
C=C1CC2(C)CCC(OC(=O)C3(C)OC3C)C(C)(OC(C)=O)C2CC1=C(C)C (stereo not drawn)
-4.85
CC1(C)Oc2ccc3c(=O)cc(-c4ccc(F)cc4)oc3c2C1C(=O)O (stereo not drawn)
8.1
Cc1ccc2c(sc(-c3ccc4c(c3)sc(-c3ccc5c(c3)sc(-c3ccc(N(C)C)cc3)[n+]5C)[n+]4C)[n+]2C)c1S(=O)(=O)O (tested in a mixture with another compound)
35
CC(=O)C1=C(C)N2C(=NC3=C(CCc4ccccc43)C2c2ccc(Cl)cc2)S1 (stereo not drawn)
-6.9
COC(=O)c1ccc(NC(=O)O/N=C(\Cl)C(C)C)cc1
34.1
Cc1ccc(C)c(NC(=O)/C(=N\N)C(c2cnc3ccc([N+](=O)[O-])cc3n2)[N+](=O)[O-])c1 (stereo not drawn)
32.2
C=CCNC1=C2C[C@@H](C)C[C@@H](OC)[C@@H](OC(=O)CCCN)[C@H](C)/C=C(\C)[C@@H](OC(N)=O)[C@H](OC)/C=C\C=C(/C)C(=O)NC(=CC1=O)C2=O
20.6
CC1CC(C(=O)OC2OC(COC3OC(CO)C(OC4OC(C)C(O)C(O)C4O)C(O)C3O)C(O)C(O)C2O)C2CCC3(C)C(=CCC4(C)C3CCC3C(C)(CO)C(O)C(O)CC34C)C2C1C (stereo not drawn)
77.8
CC(=O)C(C(C)=O)c1ccccc1
4.05
Cc1ccc(NC(=O)/C(Cc2cc(=O)oc3cc(O)ccc23)=N\NC(C)(C)C)cc1C
-17.9
C[C@]12CC[C@@H]3c4ccc(OS(N)(=O)=O)cc4CC[C@H]3[C@@H]1CCC2=O
5.6
N#CCCOc1ccccc1
-30.6
CCC/C(Cl)=N/OC(=O)Nc1cccc(F)c1
45
C=CCn1c2c(c3ccccc3c1=O)C(=O)c1ccccc1-2
-8.5
COC(=O)c1cnn2c1n[n+]([O-])c1ccccc12
-37
CCN(CC)C(=O)c1cccnc1
-20.4
CCCCCCCCCC(=O)CC(=O)c1c(O)cc(O)cc1O
31.8
CC(C)=CCc1c(OC(=O)c2c(C)cc(O)cc2O)cc(CO)c(CO)c1O
8.65
CC1=C(/C=C/C(C)=C/C=C/C(C)=C/C(=O)Nc2ccc(O)cc2)C(C)(C)CCC1
12.2
COc1ccc(-c2coc3c4c(ccc3c2=O)OCO4)cc1OC
-8.45
O=C(CCc1ccc(O)c(O)c1)c1ccc(O)c(O)c1O
-17.1
Fc1ccc(Nc2nc(Cl)c3[nH]cnc3n2)cc1Cl
32.6
NC(Cc1ccc(S(=O)(=O)O)cc1)C(=O)NC(Cc1ccc(S(=O)(=O)O)cc1)C(=O)NC(Cc1ccc(S(=O)(=O)O)cc1)C(=O)NC(Cc1ccc(S(=O)(=O)O)cc1)C(=O)O (stereo not drawn)
5.85
C=C(CCC(C(=O)O)C1CCC2(C)C3=C(CCC12C)C1(C)CCC(O)C(C)(C)C1CC3)C(C)C (stereo not drawn)
-23.6
NC(=S)NS(=O)(=O)c1ccc(N)cc1
-16.4
COc1ccc2cc1Oc1ccc(cc1)CC1c3cc(OC)c(cc3CCN1C)Oc1c(OC)c(OC)cc3c1C(C2)N(C)CC3 (stereo not drawn)
5.25
Cc1ccc(OCC2OC(n3cnc4nc(Cl)nc(Cl)c43)CC2Oc2ccc(C)cc2)cc1 (stereo not drawn)
57.6
CCOC(=O)COc1cc(-c2ccccc2)nc2cc(F)ccc12
-4.1
[O-]c1ccccc1/C=N/C(/N=C/c1ccccc1[O-])c1ccccc1O.[O-]c1ccccc1/C=N/C(/N=C/c1ccccc1[O-])c1ccccc1O.[Zr+4]
14.2
COc1ccc2c(c1)N(C(C)=O)CN1C(=O)CCC21 (stereo not drawn)
6.85
CC(=O)C1=C(C)N2C(=NC3=C(CCc4ccccc43)C2c2cccc(Br)c2)S1 (stereo not drawn)
-7.5

* * *

experiment summary: NCI Yeast Anticancer Drug Screen. Data for the mlh1 rad18 strain (AID 175)
condition context: S. cerevisiae mlh1 rad18 strain growth inhibition; at 50.0 µM; hits give high values
Compounds without any hit were thinned out: in the full panel of roughly 79,000, 15% have a hit.
Property: growth inhibition; scope: individual compounds
readout: growth inhibition (%)

S=C(S)NC1CCCCCCCCCCC1
39
C=C1C(=O)OC2/C=C(\CO)CC/C=C(\CO)CC(OC(=O)C(C)C)C12 (stereo not drawn)
-41.5
NC1N=C(c2ccc(Cl)cc2)C2=C(N1)c1ccccc1CC2 (stereo not drawn)
-50.7
CC1OC(Oc2c(-c3cc(O)c(O)c(O)c3)oc3cc(O)cc(O)c3c2=O)C(O)C(O)C1O (stereo not drawn)
-13.6
CCOc1ccc(Br)cc1/C=N/NS(=O)(=O)c1ccc(C)cc1
8.35
CCOC(=O)/C=C(\C)Nc1ccc(F)cc1
14.2
O=C(O)c1cn(C2CC2)c2cc(N3CCNCC3)c(F)cc2c1=O
-0.35
COC(=O)C(=O)C(C(=O)C(=O)Nc1ccccc1OC)c1nc2ccc([N+](=O)[O-])cc2[nH]c1=O (stereo not drawn)
21.6
CNC(=S)/C(=N\Nc1nc[nH]c1C(N)=O)C(N)=S
21.1
OCC(CO)(CO)COCC(CO)(CO)COCC(CO)(CO)CO
-25.1
[Br][Sn]([CH2][Sn]([Br])([c]1ccccc1)[c]1ccccc1)([c]1ccccc1)[c]1ccccc1
81.8
Clc1ccc(C=NCCN=Cc2ccc(Cl)c(Cl)c2)cc1Cl
-9.3
COc1ccc(/C=C/C(=O)c2ccc(Cl)cc2)c(OC)c1
8.75
C[N+]12CCC34c5ccccc5NC3C3C(CC(=O)[O-])OCC=C(C1)C3CC42 (stereo not drawn)
-31
CC(=O)CCN(Cc1ccccc1)Cc1ccccc1
22.4
COc1ccc(NC(=S)N(C)C)cc1
3.1
Cc1ccc(N2C(=O)CC(Sc3ccccc3N)C2=O)cc1Cl (stereo not drawn)
-11.9
O=C1C2C3C=CC(C2C(=O)N1CO)C1C2C(=O)N(CO)C(=O)C2C31 (stereo not drawn)
2.2
O=C1NC(N/N=C\c2ccccc2)=N/C1=C/c1ccc(Cl)cc1
-1.85
O=C1OC(c2ccccc2)=N/C1=C/c1cccs1
-24.8
NC(=O)c1ccccc1OCC(O)CO (stereo not drawn)
26.1
CCOC(=O)C(C)Oc1ccccc1[N+](=O)[O-] (stereo not drawn)
-15.8
CC1C2(C)OC(=N)C(C#N)(C(c3cccc([N+](=O)[O-])c3)O2)C1(C#N)C#N (stereo not drawn)
-9.1

* * *

experiment summary: NCI Yeast Anticancer Drug Screen. Data for the mlh1 rad18 strain (AID 175)
condition context: S. cerevisiae mlh1 rad18 strain growth inhibition; at 50.0 µM; hits give high values
About 79,000 compounds went through this panel and 15% of them were active in at least one assay; those are over-represented in the sample as a whole.
readout: growth inhibition (%)

O=C(Cc1nc2ccc(C(=O)c3ccccc3)cc2[nH]c1=O)C(=O)Nc1ccccc1[N+](=O)[O-]
12.3
O=C(O)CCNC(=O)c1ccccc1
-12.8
N#CCCOc1ccccc1
-8.5
O=C(CCc1ccc(O)c(O)c1)c1ccc(O)c(O)c1O
-33.9
Cn1c2c(c3ccccc3c1=O)C(=O)c1ccccc1-2
-23.7
COc1cc(-c2cc(=O)c3c(C)cc(O)cc3o2)cc(OC)c1OC
45.6
Cc1cc(S(=O)(=O)O)c(NC(=O)c2oc3cc(O)ccc3c(=O)c2C)cc1Cl
3.95
O=C(O)COc1cc(-c2ccccc2F)nc2cc3c(cc12)OCO3
-18.1
O[C@H]1[C@H](O)[C@@H](Cn2nnc(-c3ccccc3)c2-c2ccccc2)OCO[C@@H]1Cn1nnc(-c2ccccc2)c1-c1ccccc1
29.1
COc1ccc(CC2C(=O)NC(=O)NC2=O)cc1OCc1ccccc1
-44.6
O=C1OC(=O)C2C1OC1C(=O)OC(=O)C12 (stereo unspecified)
-28.1

All figures here come from PubChem BioAssay (NCI).
